Ref: patent US9963448B2

- system-under-test: hPAD4 (Homo sapiens)
- Sequence (Q9UM07 whole entry): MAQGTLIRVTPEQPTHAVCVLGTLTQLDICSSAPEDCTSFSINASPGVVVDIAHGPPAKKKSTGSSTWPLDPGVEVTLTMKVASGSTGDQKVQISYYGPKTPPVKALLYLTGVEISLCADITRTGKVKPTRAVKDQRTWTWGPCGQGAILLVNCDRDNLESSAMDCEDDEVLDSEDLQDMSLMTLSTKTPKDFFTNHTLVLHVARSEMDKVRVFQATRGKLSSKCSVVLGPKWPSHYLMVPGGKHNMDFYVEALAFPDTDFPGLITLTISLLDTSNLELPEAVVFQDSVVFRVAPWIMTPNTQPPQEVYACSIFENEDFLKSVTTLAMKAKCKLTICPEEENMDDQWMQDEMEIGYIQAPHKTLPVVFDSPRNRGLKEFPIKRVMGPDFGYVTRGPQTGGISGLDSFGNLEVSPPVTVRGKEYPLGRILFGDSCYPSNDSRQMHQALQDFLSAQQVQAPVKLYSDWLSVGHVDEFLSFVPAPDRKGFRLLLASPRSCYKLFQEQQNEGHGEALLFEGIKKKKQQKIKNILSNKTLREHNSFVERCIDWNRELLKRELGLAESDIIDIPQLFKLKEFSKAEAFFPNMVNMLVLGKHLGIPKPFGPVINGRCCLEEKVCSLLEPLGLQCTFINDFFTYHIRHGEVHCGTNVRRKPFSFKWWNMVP
- protocol-details: hPAD4 RFMS (RapidFire mass spectrometry) PAD4 inhibition assay
- Format: biochemical
- settings: hPAD4 enzyme, RFMS readout; read-out: hPAD4 RFMS IC50
Structures can show the parent of a compound that is named as a salt.
measurement-type: IC50

Guide cases for IC50, answers given:
| compound | measured-value |
| --- | --- |
| COc1ccc2cc(-c3nc4cc(C(=O)N5C[C@H](N)CC[C@@H]5C)ccc4n3C)n(CC3CC3)c2n1 [Compound I-352] | < 1000 nM |
| COc1cc(C(=O)N2CCC(F)C(N)C2)cc2nc(-c3cc4cccnc4n3CC3CC3)n(C)c12 (stereo not shown) [Compound I-56] | 1000 to 5000 nM |
| CCn1c(-c2nc3cc(C(=O)N4CCC[C@@H](N)C4)cc(F)c3n2CC)cc2cccnc21 [Compound I-151] | 1000 to 5000 nM |
| Cn1c(-c2cc3cccnc3n2CC2CC2)nc2cc(C(=O)N3CC[C@H]4CCN[C@H]4C3)cc(OC(F)F)c21 (single isomer, unassigned) [Compound I-25, hydrochloride] | 1000 to 5000 nM |
| COc1cc(C(=O)N2C[C@H]3CCC2[C@H]3N)cc2nc(-c3cc4cc(/C=C/c5ccccc5)ccc4n3CC3CC3)n(C)c12 [Compound I-359] | < 1000 nM |

Ask: Could you share which IC50 value was measured for Cn1c(-c2cc3cccnc3n2CC2CC2)nc2cc(C(=O)N3C[C@H](N)C[C@H](F)C3)ccc21 [Compound I-67] ?
Reply: > 10000 nM

Ask: # input compound: CCn1c(-c2nc3cc(C(=O)N4CCC5CCNC5C4)cc(OC)c3n2C)cc2cccnc21 (stereo not shown) [Compound I-13] ; wanted: its IC50
Reply: 1000 to 5000 nM

---

- system-under-test: mPAD4 (Mus musculus)
- Sequence (Q9Z183 whole entry): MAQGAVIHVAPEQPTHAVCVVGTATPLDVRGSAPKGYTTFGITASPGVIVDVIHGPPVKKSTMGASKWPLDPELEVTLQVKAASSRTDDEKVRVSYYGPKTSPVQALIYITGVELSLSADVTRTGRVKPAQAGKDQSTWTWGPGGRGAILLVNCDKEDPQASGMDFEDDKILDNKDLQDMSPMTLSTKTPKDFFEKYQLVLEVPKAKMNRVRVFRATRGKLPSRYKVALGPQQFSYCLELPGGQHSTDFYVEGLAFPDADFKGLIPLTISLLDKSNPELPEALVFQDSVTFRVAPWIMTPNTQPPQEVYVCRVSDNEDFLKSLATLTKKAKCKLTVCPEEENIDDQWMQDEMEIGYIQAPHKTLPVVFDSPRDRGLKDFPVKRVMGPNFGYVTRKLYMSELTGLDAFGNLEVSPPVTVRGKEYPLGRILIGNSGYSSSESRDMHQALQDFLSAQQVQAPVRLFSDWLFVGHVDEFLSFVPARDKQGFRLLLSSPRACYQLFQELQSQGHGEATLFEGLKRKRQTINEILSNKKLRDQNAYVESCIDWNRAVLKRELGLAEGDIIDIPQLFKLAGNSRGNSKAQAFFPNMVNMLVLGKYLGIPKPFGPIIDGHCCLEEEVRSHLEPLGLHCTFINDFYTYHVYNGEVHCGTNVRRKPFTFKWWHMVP
- protocol-details: mPAD4 RFMS PAD4 inhibition assay
- Type: biochemical
- settings: mPAD4, RFMS readout; read-out: mPAD4 RFMS IC50
pIC50: −log10 of the molar value.
measurement-type: pIC50

Here is how some compounds turned out for pIC50.
| compound | measurement-type | measured-value |
| --- | --- | --- |
| COc1cc(C(=O)N2CCC[C@@H](N)C2)cc2nc(-c3cc4ccc(C(C)(C)O)nc4n3CC3CC3)n(C)c12 [Compound I-211] | pIC50 | > 6.00 |
| Cn1c(-c2cc3cccnc3n2CC2CC2)nc2cc(C(=O)N3CCC[C@@H](N)C3)cc(S(C)(=O)=O)c21 [Compound I-131] | pIC50 | < 5.00 |
| COc1cc(C(=O)N2CC3CCC2[C@H]3N)cc2nc(-c3cc4cccnc4n3CC3CC3)n(C)c12 (stereo partly shown) [Compound I-31] | pIC50 | > 6.00 |
| CO[C@@H]1CCN(C(=O)c2cc(OC(F)F)c3c(c2)nc(-c2cc4cccnc4n2CC2CC2)n3C)C[C@@H]1N [Compound I-133] | pIC50 | 5.30 to 6.00 |
| COc1cc(C(=O)N2CC3(CCC3N)C2)cc2nc(-c3cc4cccnc4n3CC3CC3)n(C)c12 (stereo not shown) [Compound I-85] | pIC50 | < 5.00 |

Ask: Could you tell me which pIC50 is on file for Cn1c(-c2cc3cccnc3n2CC2CC2)nc2cc(C(=O)N3CCC[C@@H](N)C3)cc(OCC(F)(F)F)c21 [Compound I-59] ?
Reply: > 6.00

Ask: Dear colleague, I am looking for the recorded pIC50 of the following compound: COc1cc(C(=O)N2CCC[C@@H](N)C2)cc2nc(-c3cc4cccnc4n3CC3CC(C)(O)C3)n(C)c12 (stereo partly shown) [Compound I-113]
Reply: 5.00 to 5.30
